B1: ZNF649 (parent)
chain: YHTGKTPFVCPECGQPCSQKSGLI

variants of: B1; test: protein stability index of a GFP-peptide fusion (GPS, HEK-293T) (PSI 1-6); higher = more stable; conditions: c terminus: a fixed tail appended;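 further: lentivirally expressed fusions sorted by FACS into six bins by GFP to DsRed ratio, PSI derived from sequencing read proportions per bin multiplied by bin number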
ASSAY_METRIC: protein stability index

* P7M | 1.22
* G14M | 2.05
* Y1G | 3.8
* Q19G | 1.49
* Q19I | 1.57
* S18K | 1.46
* C13T | 2.99
* Q19R | 2.27
* G22L | 2.97
* G22W | 1.63
* T6A | 2.07
* P7H | 3.19
* C17E | 1.48
* P11E | 1.61
* C17D | 2.63
* G14F | 1.94
* C13R | 2.37
* S21T | 1.96
* C13V | 2.13
* P11K | 2.46
* P11C | 1.65
* E12F | 2.31
* H2Y | 2.42
* S18Q | 1.49
* V9N | 3
* V9D | 2.39
* P7C | 2.26
* G14C | 2.12
* T3A | 2.57
* C13Q | 2.54
* G22M | 1.87
* Q19N | 1.59
* P7E | 1.44
* Y1P | 3.28
* Y1C | 3.52
* S18E | 3.48
* K20T | 1.8
* C13F | 2.8
* Q15K | 2.35
* Y1R | 2.69
* T3R | 2.23
* I24K | 1.84
* Q15G | 1.45
* K20A | 2.05
* P16L | 2.82
* Q15I | 1.62
